- testedSystem: Avi-KRAS WT (1-169) GppNHp/RAF1 RBD-3xFLAG (52-151) (Homo sapiens)
- Construct: Avi-KRAS WT (1-169)
- Sequence (P01116 1-169 isoform P01116-2): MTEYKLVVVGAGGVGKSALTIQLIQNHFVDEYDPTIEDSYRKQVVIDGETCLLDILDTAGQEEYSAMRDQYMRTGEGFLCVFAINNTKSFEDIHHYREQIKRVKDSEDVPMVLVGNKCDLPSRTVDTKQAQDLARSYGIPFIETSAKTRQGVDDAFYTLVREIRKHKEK
- procedureDetails: Raf1-KRAS WT-GppNHP disruption HTRF assay (Biological Example 1)
- Type: binding
- reportedConditions: KRAS WT-GppNHp/RAF1 RBD HTRF
pIC50: −log10 of the molar value.
measuredProperty: pIC50

Examples from the recorded data:
>  <molecule>
CN(C)C(=O)c1cnn2c1CN(c1nc(OC[C@@]34CCCN3C[C@H](F)C4)nc3c(F)c(-c4ccc(F)c5sc(N)c(C#N)c45)c(C(F)(F)F)cc13)CC2

>  <pIC50>
5.00 to 6.00

$$$$
>  <molecule>
CCN(c1nc(OC[C@@]23CCCN2C[C@H](F)C3)nc2c(F)c(-c3ccc(F)c4sc(N)c(C#N)c34)c(C(F)(F)F)cc12)[C@H]1CCN(C(=O)C(C)C)C1 [Compound 332]

>  <pIC50>
> 7.00

$$$$
>  <molecule>
N#Cc1c(N)sc2c(F)ccc(-c3c(C(F)(F)F)cc4c(N5CCN6C(=O)CCC6C5)nc(OCC56CCCN5CC(F)C6)nc4c3F)c12 (centres unmarked) [Compound 430]

>  <pIC50>
6.00 to 7.00

$$$$
>  <molecule>
COC[C@H]1CN(c2nc(OC[C@@]34CCCN3C[C@H](F)C4)nc3c(F)c(-c4ccc(F)c5sc(N)c(C#N)c45)c(C(F)(F)F)cc23)CCO1

>  <pIC50>
6.00 to 7.00

$$$$
>  <molecule>
CN(c1nc(OC[C@@]23CCCN2C[C@H](F)C3)nc2c(F)c(-c3ccc(F)c4sc(N)c(C#N)c34)c(C(F)(F)F)cc12)[C@H]1C[C@H](CF)N(C(=O)C2CC2)C1

>  <pIC50>
6.00 to 7.00

$$$$
>  <molecule>
CC(=O)N1CCN(c2nc(OC[C@@]34CCCN3C[C@H](F)C4)nc3c(F)c(-c4ccc(F)c5sc(N)c(C#N)c45)c(C(F)(F)F)cc23)C2CC21 (some centres unmarked)

>  <pIC50>
5.00 to 6.00

$$$$
>  <molecule>
N#Cc1c(N)sc2c(F)ccc(-c3c(C(F)(F)F)cc4c(N5CCS(=N)(=O)CC5)nc(OC[C@@]56CCCN5C[C@H](F)C6)nc4c3F)c12

>  <pIC50>
6.00 to 7.00

$$$$
>  <molecule>
Cn1ncc2c1CN(c1nc(OC[C@@]34CCCN3C[C@H](F)C4)nc3c(F)c(-c4ccc(F)c5sc(N)c(C#N)c45)c(C(F)(F)F)cc13)CC2

>  <pIC50>
< 5.00

$$$$
>  <molecule>
[2H]C1([2H])CN2C[C@H](F)C[C@]2(COc2nc(N(CC)[C@H]3CCN(C(=O)C(C)C)C3)c3cc(C(F)(F)F)c(-c4ccc(F)c5sc(N)c(C#N)c45)c(F)c3n2)C1

>  <pIC50>
6.00 to 7.00

$$$$
>  <molecule>
CCN(c1nc(OC[C@@]23CCCN2C[C@H](F)C3)nc2c(F)c(-c3ccc(F)c4sc(N)c(C#N)c34)c(C(F)(F)F)cc12)[C@@H]1CCN(C(=O)C2CC2)[C@@H]1C (atropisomer, axis not shown) [Compound 524]

>  <pIC50>
> 7.00

$$$$

Query :: Could you tell me which pIC50 is on file for CC[C@@H]1[C@H](N(C)c2nc(OC[C@@]34CCCN3C[C@H](F)C4)nc3c(F)c(-c4ccc(F)c5sc(N)c(C#N)c45)c(C(F)(F)F)cc23)CCN1C(=O)C(C)C ?
Result :: 5.00 to 6.00
